system: primary human hepatic stellate cells (donor 1); assay: scaled lipid accumulation score (0 = DMSO-like, 1 = nortriptyline-like); higher = stronger HSC inactivation (lipid re-accumulation), active = hit call of the paper; settings: library stock concentration: 10 mM; 48 h
The whole screen tested about 5,800 compounds, of which about 620 (11%) showed activity. The sample as a whole holds a higher share of actives than the screen did.
Listed compounds paired with reported scaled lipid accumulation score

Study these solved cases before continuing.
c1ccc(CN(CC2=NCCN2)c2ccccc2)cc1 [Antazoline phosphate] | 0.143 (inactive)
C[C@@H]1C(=O)NC2=Nc3cccc(Cl)c3CN21 | ≤ 0 (inactive)
COc1ccc(NC(=O)c2cc(OCCCN(C)C)nn2Cc2ccccc2)cc1.Cl [CFM 1571 hydrochloride] | 1.11 (active)
CC(C)NCC(O)COc1cccc2ccccc12 (configuration not stated) | 0.847 (inactive)

Okay, next one:
Task: Notebook entry, primary human hepatic stellate cells (donor 1) assay: scaled lipid accumulation score of C=CC(=O)Nc1cccc(Nc2nc(Nc3ccc(N4CCN(C(C)=O)CC4)cc3OC)ncc2C(F)(F)F)c1 = ?
Output: 0.063 (inactive)

====

tested on: primary human hepatic stellate cells (donor 1); assay: scaled lipid accumulation score (0 = DMSO-like, 1 = nortriptyline-like); higher = stronger HSC inactivation (lipid re-accumulation), active = hit call of the paper; conditions: library stock concentration: 400 uM; 48 h
Among all 5,800 compounds or so, about 620 (11%) showed activity.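 The calls were made as follows: active = score above a cut-off or among the top three wells of a plate; in these data no inactive exceeds 0.85.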 This excerpt belongs to a sample that is enriched for actives.
Respond only with the outcome that fits, drawn from 1.0 for active, 0.0 for inactive

O=C1NC(=O)/C(=C/c2ccc3nccnc3c2)S1 | 0.0
Cc1cc(Nc2cc(N3CCN(C)CC3)nc(Sc3ccc(NC(=O)C4CC4)cc3)n2)n[nH]1 | 0.0
Cc1[nH]c(/C=C2\C(=O)Nc3ccc(S(=O)(=O)N(C)c4cccc(Cl)c4)cc32)c(C)c1C(=O)N1CCN(C)CC1 | 0.0
COc1ncc(-c2ccc3nccc(-c4ccnnc4)c3c2)cc1NS(=O)(=O)c1ccc(F)cc1F | 0.0

Task: Could you check what this test reported for Cc1[nH]c(/C=C2\C(=O)Nc3ccc(S(=O)(=O)Cc4c(Cl)cccc4Cl)cc32)c(C)c1C(=O)N1CCC[C@@H]1CN1CCCC1 ?
Output: 1.0

Task: Could you check what this test reported for Clc1ccc(C2(c3ccc(-c4cn[nH]c4)cc3)CCNCC2)cc1 ?
Output: 0.0

Task: Could you check what this test reported for Cc1nc(N)ncc1-c1nc(N2CCOCC2)c2sc(C(C)(C)O)cc2n1 ?
Output: 0.0

Task: Could you check what this test reported for O=C1NC(=O)C(c2cnc3ccccn23)=C1c1cn2c3c(cc(F)cc13)CN(C(=O)N1CCCCC1)CC2 ?
Output: 0.0

====

test system: primary human hepatic stellate cells (donor 1); assay: scaled lipid accumulation score (0 = DMSO-like, 1 = nortriptyline-like); higher = stronger HSC inactivation (lipid re-accumulation), active = hit call of the paper; settings: library stock concentration: 1 mM; 48 h
Where a name gives a salt, the structure may show the parent alone. The whole screen tested about 5,800 compounds, of which about 620 (11%) showed activity. This excerpt belongs to a sample that is enriched for actives.
REPORTED ENDPOINT: scaled lipid accumulation score

CCCCC/C=C\C/C=C\C/C=C\CCCCC(=O)OC [.gamma.-Linolenic Acid methyl ester] | ≤ 0 (inactive)
CC#CCC(C)C(=O)/C=C/[C@@H]1[C@H]2C/C(=C/CCCC(=O)O)C[C@H]2C[C@H]1O (stereo partly drawn) [15-keto Iloprost] | ≤ 0 (inactive)
CCCCCCCCCC(=O)N[C@H](CN1CCOCC1)[C@H](O)c1ccccc1 (racemic) [DL-threo-PDMP (hydrochloride)] | 0.001 (inactive)
CCCCCCCCCCCCCCCCOC[C@H](COP(=O)([O-])OCC[N+](C)(C)C)OC [2-O-methyl PAF C-16] | ≤ 0 (inactive)
CCCCCC(O)C=CC1C2CC(CO2)C1CCCCCCC(=O)O (stereo not drawn) [9,11-methane-epoxy Prostaglandin F1.alpha.] | 0.048 (inactive)
CC(C)(C)n1nc(Cc2cccc3ccccc23)c2c(N)ncnc21 | ≤ 0 (inactive)
CCCCCC=CCC=CCCCCCCCC(=O)OC(CO)CO [2-Linoleoyl Glycerol] | 0.053 (inactive)

Okay, next one:
Task: Please report the recorded scaled lipid accumulation score for CCCCC/C=C\C/C=C\C/C=C\C/C=C\CCCC(=O)OCc1ccsc1 .
Output: ≤ 0 (inactive)

====

test system: primary human hepatic stellate cells (donor 1); experiment: scaled lipid accumulation score (0 = DMSO-like, 1 = nortriptyline-like); higher = stronger HSC inactivation (lipid re-accumulation), active = hit call of the paper; settings: 48 h
Counter-ions that a name gives are not always drawn. About 620 (11%) of roughly 5,800 compounds showed activity. The list comes from a sample in which actives are over-represented; it also holds close analogues and randomly drawn compounds.
Listed compounds paired with reported scaled lipid accumulation score

Study these solved cases before continuing.
CC/C(=C(\c1ccccc1)c1ccc(OCCN(C)C)cc1)c1ccccc1 [Tamoxifen citrate] | 0.372 (inactive)
CCc1oc2ccccc2c1C(=O)c1cc(Br)c(O)c(Br)c1 | 0.013 (inactive)
CO[C@H]1C[C@H](O[C@H]2[C@H](C)[C@@H](O[C@@H]3O[C@H](C)C[C@H](N(C)C)[C@H]3O)[C@@H](C)C[C@@]3(CO3)C(=O)[C@H](C)[C@@H](O)[C@@H](C)[C@@H](C)OC(=O)[C@@H]2C)O[C@@H](C)[C@@H]1O [Oleandomycin phosphate] | ≤ 0 (inactive)
COc1cc(C(=O)OCCCN2CCCN(CCCOC(=O)c3cc(OC)c(OC)c(OC)c3)CC2)cc(OC)c1OC [Dilazep dihydrochloride] | 0.164 (inactive)
CN(C)CCC=C1c2ccccc2CCc2ccccc21 [Amitryptiline hydrochloride] | 0.821 (inactive)
CN(C)CCCN1c2ccccc2Sc2ccc(C(F)(F)F)cc21 [Triflupromazine hydrochloride] | 0.585 (inactive)
CN1CCN(CCCN2c3ccccc3Sc3ccc(C(F)(F)F)cc32)CC1 [Trifluoperazine dihydrochloride] | 0.393 (inactive)
CCCCc1cc2ccccc2c(OCCN(C)C)n1 [Dimethisoquin hydrochloride] | 0.71 (inactive)

Task: Please report the recorded scaled lipid accumulation score for COc1cc(OC)c(C(=O)CCCN2CCCC2)c(OC)c1 [Buflomedil hydrochloride] .
Output: 0.025 (inactive)

====

system: primary human hepatic stellate cells (donor 1); test: scaled lipid accumulation score (0 = DMSO-like, 1 = nortriptyline-like); higher = stronger HSC inactivation (lipid re-accumulation), active = hit call of the paper; conditions: library stock concentration: 6.3 mM; 48 h
Structures can show the parent of a compound that is named as a salt. Screen size: about 5,800 compounds; about 620 (11%) showed activity.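 Rule for the calls: active = score above a cut-off or among the top three wells of a plate; in these data no inactive exceeds 0.85.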 The sample holds actives, similar compounds and a random draw of the others, so the mix is not that of the screen.
Respond only with the outcome that fits, drawn from Y for active, N for inactive

CCN(CC)CCNC(=O)COc1ccc(OC)cc1 [Mefexamide] | N
CC(=O)[C@H]1CC[C@H]2[C@@H]3CC=C4C[C@@H](O)CC[C@]4(C)[C@H]3CC[C@]12C [Pregnenolone] | N
C[C@H]1COc2c(C3(N)CC3)c(F)cc3c(=O)c(C(=O)O)cn1c23 [Pazufloxacin] | N

Task: Could you check what this test reported for N/C(=N\C(=O)c1nc(Cl)c(N)nc1N)NCc1ccccc1 [Benzamil] ?
Output: N

Task: Could you check what this test reported for CN(C)CC/C=C1/c2ccccc2COc2ccccc21.Cl [Doxepin hydrochloride] ?
Output: Y

Task: Could you check what this test reported for CN(C)CCCN1c2ccccc2CCc2ccccc21 [Imipramine hydrochloride] ?
Output: N

Task: Could you check what this test reported for CN(C)CCCN1c2ccccc2Sc2ccc(Cl)cc21 [Chlorpromazine HCl] ?
Output: N

Task: Could you check what this test reported for CN1CCC(OC(c2ccccc2)c2ccccc2)CC1 [Diphenylpyraline hydrochloride] ?
Output: N

Task: Could you check what this test reported for O=C(O)Cc1ccccc1Nc1c(Cl)cccc1Cl [Diclofenac sodium] ?
Output: N

Task: Could you check what this test reported for CCN(CC)CCCC(C)Nc1ccnc2cc(Cl)ccc12 (stereo not given) [Chloroquine phosphate] ?
Output: N

====

system: primary human hepatic stellate cells (donor 1); test: scaled lipid accumulation score (0 = DMSO-like, 1 = nortriptyline-like); higher = stronger HSC inactivation (lipid re-accumulation), active = hit call of the paper; details: library stock concentration: 1 mM; 48 h
In all, about 5,800 compounds went through this assay and about 620 (11%) showed activity. This is one part of a sample in which actives are shown more often than they occur.
REPORTED ENDPOINT: scaled lipid accumulation score

Task: Please report the recorded scaled lipid accumulation score for Cc1ccc(C(=O)Cn2c3c(sc2=N)CCCC3)cc1 [Pifithrin-.alpha.] .
Output: ≤ 0 (inactive)

Task: Please report the recorded scaled lipid accumulation score for CCCCC/C=C\C/C=C\CCCCCCCC(=O)O [Linoleic Acid (peroxide free)] .
Output: 0.024 (inactive)

====

tested on: primary human hepatic stellate cells (donor 1); assay: scaled lipid accumulation score (0 = DMSO-like, 1 = nortriptyline-like); higher = stronger HSC inactivation (lipid re-accumulation), active = hit call of the paper; settings: library stock concentration: 3.33 mM; 48 h
Where a name gives a salt, the structure may show the parent alone. Among all 5,800 compounds or so, about 620 (11%) showed activity.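 Rule for the calls: active = score above a cut-off or among the top three wells of a plate; in these data no inactive exceeds 0.85.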 The sample as a whole holds a higher share of actives than the screen did.
Respond only with the outcome that fits, drawn from active, inactive

Field: example entries. Status: answers known.
CN1CCN(C(=O)c2cc3cc(Cl)ccc3[nH]2)CC1 | inactive
CC(C)(C(=O)O)c1ccc(C(O)CCCN2CCC(C(O)(c3ccccc3)c3ccccc3)CC2)cc1 (configuration not stated) [Fexofenadine HCl] | inactive
NC(=O)C(c1ccccc1)(c1ccccc1)[C@@H]1CCN(CCc2ccc3c(c2)CCO3)C1 [Darifenacin HBr] | inactive
C[C@H](NCc1ccc(OCc2cccc(F)c2)cc1)C(N)=O [Safinamide Mesylate] | inactive
CN1CCCN(C(=O)c2cccc(-c3ccc(/C=C4/C(=O)Nc5ccc(Cl)cc54)o3)c2)CC1 | inactive
O=C(c1ccc(Nc2nccc(-c3cc4ccccc4s3)n2)cc1)N1CCC(N2CCCC2)CC1 [IKK Inhibitor VII] | active

Would you kindly look at the next entry?
Task: Could you check what this test reported for O=C(c1ccc(C(=O)N2CCC(N3CCCC3)CC2)c(Nc2ccccc2)c1)N1CCC(N2CCCC2)CC1 ?
Output: inactive

Data origin: the supplement of paper PMC9135407
